Recorded values, source PubChem BioAssay (NCI).

test system: NCI-H322M lung; test: NCI-60 one-dose screen, 48 h (100 = growth as untreated, 0 = no growth, -100 = all killed); details: 10 µM unless noted
Compounds without any hit were thinned out: in the full panel of roughly 83,000, 20% have a hit.

- COMPOUND: "C=C1C(=O)O[C@H]2[C@H]1CC/C(COC(=O)c1cc(OC)c(OC)c(OC)c1)=C\\CC[C@@]1(C)O[C@@H]21"
  growth [%]: 52.9
- COMPOUND: "CCC(CC(C)C)Nc1ccc(NC(CC)CC(C)C)cc1 (stereo not given)"
  growth [%]: 107
- COMPOUND: "COc1cc(NC(C)CCCN2C(=O)c3ccccc3C2=O)c2nc(C)ccc2c1OC (stereo not given)"
  growth [%]: 76.2
- COMPOUND: "C=C1C(=O)O[C@H]2[C@H]1CC/C(COC(=O)c1ccc3ccccc3c1)=C\\CC[C@@]1(C)O[C@@H]21"
  growth [%]: 45
- COMPOUND: "COC(=O)c1oc2c(C(C)=O)c(OCCN3CCCCC3)ccc2c1C"
  growth [%]: 84.9
